Test: Antioxidant activity assessed as inhibition of ABTS free radical formation at 1 mg/ml by spectroscopic analysis (reference value: 0%)
Type: functional
Reported inhibition values are given for each entry in this list.

{"columns": ["Smiles Text", "inhibition (%)"],
 "data": [
  ["O=C(CCl)Nc1nncs1", 27.1],
  ["Cc1cc(C)c2c(NN/C=C(\\C#N)C(=O)Nc3nncs3)n[nH]c2n1", 51.8],
  ["O=C(CN1CCN(c2ccccc2)CC1)Nc1nncs1", 25.7],
  ["Nc1n[nH]cc1C(=O)Nc1nncs1", 18.9],
  ["N#CSCC(=O)Nc1nncs1", 25.7],
  ["Clc1ccc(CNc2nncs2)cc1", 0.354],
  ["Nc1nnc(SCC(=O)Nc2nncs2)s1", 20.7],
  ["c1nnc(/N=N/Nc2nncs2)s1", 24.5],
  ["Clc1ccc(C/N=c2/scnn2Cc2ccc(Cl)cc2)cc1", 38],
  ["N#C/C(=C\\c1ccc(N2CCCCC2)cc1)C(=O)Nc1nncs1", 28.7],
  ["N#CCC(=O)Nc1nncs1", 70.9],
  ["CC1=NN(c2ccccc2)C(=O)/C1=C/c1ccc(Nc2nncs2)cc1", 41.6],
  ["O=Cc1ccc(Nc2nncs2)cc1", 26.5],
  ["CN(C)/C=C(\\C#N)C(=O)Nc1nncs1", 23.7],
  ["Nc1nncs1", 28.5],
  ["O=C(Nc1nncs1)c1ccc(Cl)cc1", 26.5]
]}
